Assay: Urine levels of absorbed (bioavailable) Pu-erh tea components after a single Pu-erh tea intake, UPLC-QTOFMS and GC-TOFMS profiling
Format: in vivo, human
Settings: absorbed Pu-erh tea metabolite, human urine, 9 h post-dose vs pre-dose
Heads up, the class ranges for FC (fold change) are 0 = under 2, 1 = from 2 up to 40, 2 = 40 and over

Solved cases (8 shown):
compound	assigned_category
Cn1c(=O)c2[nH]cnc2n(C)c1=O [Theophylline]	2
Cn1cnc2c1c(=O)[nH]c(=O)n2C [Theobromine]	1
Cc1cnc(C)c(O)c1C=O [5-Deoxypyridoxal]	1
NCC(=O)O [Glycine]	0
Cn1c(=O)c2c(ncn2C)n(C)c1=O [Caffeine]	2
O=C(O)c1cccnc1 [Nicotinic acid]	2
O=C(O)c1cc(O)cc(O)c1 [3,5-hydroxy benzoic acid]	0
O=C(O)CCC(=O)O [Succinate]	0

Field: next compound
*Q* Into which category would you place O=C(O)CC(O)(CC(=O)O)C(=O)O [Citric acid] ?
*A* 0

###

Known FC (fold change) of a selection of compounds
Assay: Urine levels of absorbed (bioavailable) Pu-erh tea components after a single Pu-erh tea intake, UPLC-QTOFMS and GC-TOFMS profiling
Assay type: in vivo, human
Conditions: absorbed Pu-erh tea metabolite, human urine, 6 h post-dose vs pre-dose
Simply state the number, no unit and no words.

Would you please look over these solved cases?
entry_smiles	FC (fold change)
Cn1c(=O)c2[nH]cnc2n(C)c1=O	54.55
NCC(=O)O	2.32

Let's switch to this compound now.
*Q* Identify FC (fold change) associated with the compound "Cn1c(=O)c2c(ncn2C)n(C)c1=O"
*A* 437.21

###

Test: Urine levels of absorbed (bioavailable) Pu-erh tea components after a single Pu-erh tea intake, UPLC-QTOFMS and GC-TOFMS profiling
Assay type: in vivo, human
Settings: absorbed Pu-erh tea metabolite, human urine, 24 h post-dose vs pre-dose
attribute_measured: FC (fold change)

*Q* Quote FC (fold change) reported for NCC(=O)O [Glycine] please.
*A* 1.04

*Q* Respond only with FC (fold change) recorded for Cn1cnc2c1c(=O)[nH]c(=O)n2C [Theobromine]
*A* 2.67

*Q* Hello, please tell me recorded FC (fold change) for this one: O=C(O)CC(O)(CC(=O)O)C(=O)O [Citric acid]
*A* 1.17
